pIC50 reference
Tested on: MV4;11 cells
assay_name: Cell viability assay (CellTiter-Glo) in MV4;11 cells, alone or with gilteritinib
Assay type: cell-based
recorded_conditions: Homo sapiens, 72 h; MV4;11 cells, with gilteritinib 10 nM, three days, CellTiter-Glo; read-out: MV4; 11 IC50 gilteritinib
pIC50: −log10 of the molar value.
measure: pIC50

compound	result
O=C1CCC(N2C(=O)c3ccc(NCCNc4cccc(N5CCC(n6cc(-c7cnc8ccccc8n7)cn6)CC5)c4)cc3C2=O)C(=O)N1 (stereo not shown)	7.00 to 8.00
O=C1CCC(N2C(=O)c3ccc(NCCNc4cccc(N5CCC(c6ccccc6)CC5)c4)cc3C2=O)C(=O)N1 (stereo not shown)	> 8.00
O=C1CCC(N2Cc3ccc(CCCCCCC(=O)N4CCN(c5ccccn5)CC4)cc3C2=O)C(=O)N1 (stereo not shown)	> 8.00
O=C1CCC(N2C(=O)c3ccc(NCCCC(=O)N4CCN(c5ccccn5)CC4)cc3C2=O)C(=O)N1 (stereo not shown)	7.00 to 8.00

----------
Some compounds, each annotated with its measured pIC50.
Test system: MOLM-13 cells
assay_name: Cell viability assay (CellTiter-Glo) in MOLM-13 cells, alone or with gilteritinib
Type: cell-based
recorded_conditions: Homo sapiens, MOLM-13, 72 h, MOLM-13 cells, with gilteritinib 20 nM, three days, CellTiter-Glo; read-out: MOLM-13 IC50 gilteritinib
pIC50: −log10 of the molar value.

compound	pIC50
O=C1CCC(N2C(=O)c3ccc(NCCC[C@H]4C[C@H](n5cc(-c6cnc7ccc(CN8CCNCC8)cc7n6)cn5)C4)cc3C2=O)C(=O)N1 (stereo partly drawn)	7.00 to 8.00
CN1CCN(c2cccc3ncc(-c4cnn(C5CC(CNc6ccc7c(c6)C(=O)N(C6CCC(=O)NC6=O)C7=O)C5)c4)nc23)CC1 (stereo not drawn)	< 6.00
O=C1CCC(N2C(=O)c3ccc(NCCC[C@H]4C[C@H](n5cc(-c6cnc7ccc(Cl)cc7n6)cn5)C4)cc3C2=O)C(=O)N1 (stereo partly drawn)	7.00 to 8.00
Cc1nn([C@H]2C[C@H](CCCNc3ccc4c(c3)C(=O)N(C3CCC(=O)NC3=O)C4=O)C2)cc1-c1cnc2ccccc2n1 (stereo partly drawn)	> 8.00
O=C1CCC(N2C(=O)c3ccc(NCCCCCC(=O)N4CCC(O)(c5ccccc5)CC4)cc3C2=O)C(=O)N1 (stereo not drawn)	6.00 to 7.00
O=C1CCC(N2C(=O)c3ccc(NC[C@H]4C[C@H](n5cc(-c6ccc(N7CCNCC7)cn6)c(C6CC6)n5)C4)cc3C2=O)C(=O)N1 (stereo partly drawn)	< 6.00

----------
Tested on: MV4;11 cells
assay_name: Cell viability assay (CellTiter-Glo) in MV4;11 cells, alone or with gilteritinib
Type: cell-based
recorded_conditions: Homo sapiens, MV4-11, 72 h, MV4;11 cells, compound with gilteritinib 10 nM, three days, CellTiter-Glo; read-out: MV4; 11 IC50 gilteritinib
Entries annotated with measured IC50

compound	assay_system	IC50
O=C1CCC(N2C(=O)c3ccc(NC[C@H]4C[C@H](n5cc(-c6cnc7ccccc7n6)c(C6CC6)n5)C4)cc3C2=O)C(=O)N1 (stereo partly drawn)	MV4;11 cells	< 10 nM
O=C1CCC(N2Cc3cc(CNC(=O)c4cccc(N5CCC(n6cc(-c7cnc8ccccc8n7)cn6)CC5)c4)ccc3C2=O)C(=O)N1 (stereo not drawn)	MV4;11 cells	< 10 nM
CC(C)n1ccc2cnc(-c3cn([C@H]4C[C@H](CNc5ccc6c(c5)C(=O)N(C5CCC(=O)NC5=O)C6=O)C4)nc3C3CC3)cc21 (stereo partly drawn)	MV4;11 cells	< 10 nM
C[C@@H]1CN(c2ccc3ncc(-c4cnn([C@H]5C[C@H](CCCNc6ccc7c(c6)C(=O)N(C6CCC(=O)NC6=O)C7=O)C5)c4)nc3c2)CCN1C (stereo partly drawn)	MV4;11 cells	10 to 100 nM
CN1CCC(Nc2cccnc2-c2cn([C@H]3C[C@H](CNc4ccc5c(c4)C(=O)N(C4CCC(=O)NC4=O)C5=O)C3)nc2C2CC2)CC1 (stereo partly drawn)	MV4;11 cells	> 1000 nM
Cc1nn([C@H]2C[C@H](CCCNc3ccc4c(c3)C(=O)N(C3CCC(=O)NC3=O)C4=O)C2)cc1-c1cnc2c(C3CCN(C)CC3)cccc2n1 (stereo partly drawn)	MV4;11 cells	< 10 nM
